Target: LC3B (Homo sapiens)
Test: Fluorescence Polarization (FP) Assay: displacement of FITC-labeled peptide from GST-LC3B
Type: binding
Details: Fluorescence Polarization assay; GST-LC3B 180 nM, FITC-labeled peptide 18 nM, 25° C.; read-out: IC50
Measured attribute: IC50

>>> result("O=C1CCN(c2ccccc2)C(=O)/C1=C\\O [Compound 450]")
"15 to 100 µM"
>>> result("CN(C)CCNC=C1C(=O)CC(c2cc(F)ccc2Br)CC1=O (centres unmarked) [Compound 349]")
"< 3 µM"
>>> result("O=C1Oc2ccc(-c3ccccc3)cc2C(=O)C1=CNCCN1CCN(CCO)CC1 [Compound 156]")
"3 to 15 µM"
>>> result("O=C(O)CNC(=O)CNC=C1C(=O)CC(c2ccccc2)CC1=O (centres unmarked) [Compound 210]")
"15 to 100 µM"
>>> result("CC(F)(F)c1ccccc1C1CC(=O)C(=CNCCN2CCN(CCO)CC2)C(=O)C1 (centres unmarked) [Compound 404]")
"< 3 µM"

* * *

Quick reference for pIC50 among some molecules
Target: LC3B (Homo sapiens, UniProt Q9GZQ8)
Assay: Fluorescence Polarization (FP) Assay: displacement of FITC-labeled peptide from GST-LC3B
Format: binding
Conditions: Fluorescence Polarization assay; GST-LC3B 180 nM, FITC-labeled peptide 18 nM, 25° C.; read-out: IC50
pIC50: −log10 of the molar value. Counter-ions that a name gives are not always drawn.
Measured attribute: pIC50

>>> result("O=C1CC(c2ccccc2)CC(=O)C1=CN[C@@H](Cc1ccccc1)C(=O)OCc1ccccc1 (stereo partly drawn)")
"3.00 to 4.00"
>>> result("O=C1CC(c2cccc(Cl)c2Cl)CC(=O)C1=CNCCN1CCN(CCO)CC1 (stereo not drawn)")
"> 5.52"
>>> result("O=C1C=C(c2ccccc2)OC(=O)C1=CO")
"4.82 to 5.52"
>>> result("O=C1CCCCC(=O)C1=CNCCN1CCN(CCO)CC1")
"3.00 to 4.00"
>>> result("COc1ccc(C2CC(=O)C(=CN(C)C)C(=O)C2)cc1 (stereo not drawn)")
"> 5.52"
>>> result("COc1cc(C2CC2)c(C2CC(=O)C(=CNCCN3CCN(CCO)CC3)C(=O)C2)cc1OC (stereo not drawn)")
"4.82 to 5.52"
>>> result("COc1ccccc1C1CC(=O)C(=CNCCN(C)C)C(=O)C1 (stereo not drawn)")
"> 5.52"
>>> result("O=C1CC(c2ccc(F)cc2)CC(=O)C1=CNCCN1CCN(CCO)CC1 (stereo not drawn)")
"> 5.52"
>>> result("CCOc1ncnc2c1ncn2-c1ccc(C2CC(=O)C(=CNCCN3CCN(CCO)CC3)C(=O)C2)cc1 (stereo not drawn)")
"4.00 to 4.82"
>>> result("O=C1CC(c2ccccc2)CC(=O)C1=CNc1cccc2c1CNC2=O (stereo not drawn)")
"> 5.52"
>>> result("Cc1cccc2c(C3CC(=O)C(=CN(C)C)C(=O)C3)c[nH]c12 (stereo not drawn)")
"> 5.52"
>>> result("CN(C)C=C1C(=O)CC(c2ccc3[nH]ccc3c2)CC1=O (stereo not drawn)")
"> 5.52"
>>> result("O=C1CC2(CCC2)CC(=O)C1=CNCCN1CCN(CCO)CC1")
"4.00 to 4.82"
>>> result("O=C1CC(c2ccc(Br)cc2)CC(=O)C1=CO (stereo not drawn)")
"4.82 to 5.52"
>>> result("O=C1CC(c2ccc(-c3ccncc3)s2)CC(=O)C1=CNCCN1CCN(CCO)CC1 (stereo not drawn)")
"> 5.52"
>>> result("O=C1CC(c2ccccc2)CC(=O)C1=CNCCN1CCN(C(=O)Cc2ccccc2)CC1 (stereo not drawn)")
"> 5.52"
>>> result("O=C1CC(c2ccc(Cl)cc2)CC(=O)C1=CNCCN1CCN(C(=O)N2CCOCC2)CC1 (stereo not drawn)")
"> 5.52"
>>> result("CN(C)CCNC=C1C(=O)CC(c2ccc(Cl)cc2F)CC1=O (stereo not drawn)")
"> 5.52"
>>> result("O=C1CC(c2c[nH]c3cccc(Br)c23)CC(=O)C1=CNCCN1CCN(CCO)CC1 (stereo not drawn)")
"> 5.52"
>>> result("NC1CC(NC=C2C(=O)CC(c3ccccc3)CC2=O)C1 (stereo not drawn) [Compound 173, hydrochloride]")
"4.00 to 4.82"
>>> result("CCOC(=O)C(CS)NC=C1C(=O)CC(c2ccccc2)CC1=O (stereo not drawn)")
"4.82 to 5.52"
>>> result("CN(C)C=C1C(=O)CC(c2ccnc3ccccc23)CC1=O (stereo not drawn)")
"4.82 to 5.52"
>>> result("O=C1CC(c2csc3ccccc23)CC(=O)C1=CNCCN1CCN(CCO)CC1 (stereo not drawn)")
"> 5.52"
>>> result("CN(C)CCNC=C1C(=O)CC(c2c(Cl)cccc2C(F)(F)F)CC1=O (stereo not drawn)")
"> 5.52"
>>> result("O=C1CC(c2nccs2)CC(=O)C1=CNCCN1CCN(CCO)CC1 (stereo not drawn)")
"4.00 to 4.82"
>>> result("N#Cc1ccc(C2CC(=O)C(=CNCCN3CCN(CCO)CC3)C(=O)C2)cc1 (stereo not drawn)")
"4.00 to 4.82"
>>> result("COc1cccc2c1NC(=O)/C(=C\\NCCN1CCN(CCO)CC1)C2=O")
"4.00 to 4.82"
>>> result("CSCCNC=C1C(=O)CC(c2ccccc2)CC1=O (stereo not drawn)")
"4.00 to 4.82"
>>> result("O=C1CC(c2ccccc2)CC(=O)C1=CNC1CCC(O)CC1 (stereo not drawn)")
"3.00 to 4.00"
>>> result("CN(C)C(=O)N1CCN(CCNC=C2C(=O)CC(c3ccccc3)CC2=O)CC1 (stereo not drawn)")
"> 5.52"
>>> result("NCCOC(=O)[C@H](Cc1ccccc1)NC=C1C(=O)CC(c2ccccc2)CC1=O (stereo partly drawn) [Compound 178, hydrochloride]")
"4.00 to 4.82"
>>> result("CN(C)CCNC=C1C(=O)CC(c2c[nH]c(-c3ccccc3)c2)CC1=O (stereo not drawn)")
"4.82 to 5.52"
>>> result("CN1CCN(c2ccc(C3CC(=O)C(=CNCCN4CCN(CCO)CC4)C(=O)C3)cn2)CC1 (stereo not drawn)")
"3.00 to 4.00"
>>> result("NC=C1C(=O)CC(c2ccccc2)CC1=O (stereo not drawn)")
"4.82 to 5.52"
>>> result("O=C1CC(c2cnc3c(ccc4cccnc43)c2)CC(=O)C1=CNCCN1CCN(CCO)CC1 (stereo not drawn)")
"3.00 to 4.00"
>>> result("CN(C)C=C1C(=O)CC(c2ccc3c(c2)CCO3)CC1=O (stereo not drawn)")
"> 5.52"

* * *

Target: LC3B (Homo sapiens, UniProt Q9GZQ8)
Experiment: Fluorescence Polarization (FP) Assay: displacement of FITC-labeled peptide from GST-LC3B
Assay type: binding
Settings: Fluorescence Polarization assay; GST-LC3B 180 nM, FITC-labeled peptide 18 nM, 25° C.; read-out: IC50
Where a name gives a salt, the structure may show the parent alone.
Reported IC50 by item:
Measured attribute: IC50

>>> result("CN(C)C=Nc1nc2c(C3CC(=O)C(=CNCCN4CCN(CCO)CC4)C(=O)C3)cccc2s1 (stereo not drawn)")
"< 3 µM"
>>> result("O=C1CC(c2cc3[nH]ccc3cc2Br)CC(=O)C1=CNCCN1CCN(CCO)CC1 (stereo not drawn)")
"< 3 µM"
>>> result("O=C1CC(c2ccc(S(=O)(=O)N3CCOCC3)cc2)CC(=O)C1=CNCCN1CCN(CCO)CC1 (stereo not drawn)")
"15 to 100 µM"
>>> result("CN(C)C=C1C(=O)CC(c2cccc3c2ccn3C)CC1=O (stereo not drawn)")
"3 to 15 µM"
>>> result("CCOC(=O)C1C(=O)/C(=C\\NCCN2CCN(CCO)CC2)C(=O)CC1c1ccccc1Br (stereo not drawn)")
"< 3 µM"
>>> result("O=C(O)CCCNC=C1C(=O)CC(c2ccccc2)CC1=O (stereo not drawn)")
"15 to 100 µM"
>>> result("O=C1CC(c2cccs2)CC(=O)C1=CO (stereo not drawn) [Compound 453, lithium salt]")
"3 to 15 µM"
>>> result("O=C1CC(c2cccc(Cl)c2Cl)CC(=O)C1=CO (stereo not drawn)")
"< 3 µM"
>>> result("O=C1CC(c2c[nH]c3ccccc23)CC(=O)C1=CNCCN1CCN(CCO)CC1 (stereo not drawn)")
"< 3 µM"
>>> result("CC1(C)O[C@@H]2[C@H](O1)[C@@H](C1CC(=O)C(=CNCCN3CCN(CCO)CC3)C(=O)C1)O[C@H]2n1cnc2c(N3CCOCC3)ncnc21 (stereo partly drawn)")
"100 to 1000 µM"
>>> result("O=C1CC(c2ccc(Nc3nccs3)nc2)CC(=O)C1=CNCCN1CCN(CCO)CC1 (stereo not drawn)")
"15 to 100 µM"
>>> result("CN(C)C=C1C(=O)CC(c2csc3ccccc23)CC1=O (stereo not drawn)")
"< 3 µM"
>>> result("CN(C)CCNC=C1C(=O)CC(c2ccc(Br)s2)CC1=O (stereo not drawn)")
"< 3 µM"
>>> result("CC(C)Cn1cccc1C1CC(=O)C(=CN(C)C)C(=O)C1 (stereo not drawn)")
"3 to 15 µM"
>>> result("Cc1ccc(Cc2ccccc2C2CC(=O)C(=CN(C)C)C(=O)C2)cc1 (stereo not drawn)")
"3 to 15 µM"
>>> result("O=C1CC(c2ccccc2)CC(=O)C1=CNCCCCO (stereo not drawn)")
"100 to 1000 µM"
>>> result("O=C1Nc2ccc(C(F)(F)F)cc2C(=O)/C1=C/NCCN1CCN(CCO)CC1")
"3 to 15 µM"
>>> result("O=C1CC(c2ccccc2)CC(=O)C1=CN[C@@H](Cc1ccccc1)C(=O)O (stereo partly drawn)")
"100 to 1000 µM"
